test_target: Cystic fibrosis transmembrane conductance regulator (Homo sapiens)
procedure_text: Inhibition of human CFTR expressed in rat FRT cells coexpressing halide indicator YFP-H148Q assessed as inhibition of halide influx at 25 uM preincubated for 15 mins by FLIPR
Type: cell-based
Sequence (P13569 whole entry, looked up): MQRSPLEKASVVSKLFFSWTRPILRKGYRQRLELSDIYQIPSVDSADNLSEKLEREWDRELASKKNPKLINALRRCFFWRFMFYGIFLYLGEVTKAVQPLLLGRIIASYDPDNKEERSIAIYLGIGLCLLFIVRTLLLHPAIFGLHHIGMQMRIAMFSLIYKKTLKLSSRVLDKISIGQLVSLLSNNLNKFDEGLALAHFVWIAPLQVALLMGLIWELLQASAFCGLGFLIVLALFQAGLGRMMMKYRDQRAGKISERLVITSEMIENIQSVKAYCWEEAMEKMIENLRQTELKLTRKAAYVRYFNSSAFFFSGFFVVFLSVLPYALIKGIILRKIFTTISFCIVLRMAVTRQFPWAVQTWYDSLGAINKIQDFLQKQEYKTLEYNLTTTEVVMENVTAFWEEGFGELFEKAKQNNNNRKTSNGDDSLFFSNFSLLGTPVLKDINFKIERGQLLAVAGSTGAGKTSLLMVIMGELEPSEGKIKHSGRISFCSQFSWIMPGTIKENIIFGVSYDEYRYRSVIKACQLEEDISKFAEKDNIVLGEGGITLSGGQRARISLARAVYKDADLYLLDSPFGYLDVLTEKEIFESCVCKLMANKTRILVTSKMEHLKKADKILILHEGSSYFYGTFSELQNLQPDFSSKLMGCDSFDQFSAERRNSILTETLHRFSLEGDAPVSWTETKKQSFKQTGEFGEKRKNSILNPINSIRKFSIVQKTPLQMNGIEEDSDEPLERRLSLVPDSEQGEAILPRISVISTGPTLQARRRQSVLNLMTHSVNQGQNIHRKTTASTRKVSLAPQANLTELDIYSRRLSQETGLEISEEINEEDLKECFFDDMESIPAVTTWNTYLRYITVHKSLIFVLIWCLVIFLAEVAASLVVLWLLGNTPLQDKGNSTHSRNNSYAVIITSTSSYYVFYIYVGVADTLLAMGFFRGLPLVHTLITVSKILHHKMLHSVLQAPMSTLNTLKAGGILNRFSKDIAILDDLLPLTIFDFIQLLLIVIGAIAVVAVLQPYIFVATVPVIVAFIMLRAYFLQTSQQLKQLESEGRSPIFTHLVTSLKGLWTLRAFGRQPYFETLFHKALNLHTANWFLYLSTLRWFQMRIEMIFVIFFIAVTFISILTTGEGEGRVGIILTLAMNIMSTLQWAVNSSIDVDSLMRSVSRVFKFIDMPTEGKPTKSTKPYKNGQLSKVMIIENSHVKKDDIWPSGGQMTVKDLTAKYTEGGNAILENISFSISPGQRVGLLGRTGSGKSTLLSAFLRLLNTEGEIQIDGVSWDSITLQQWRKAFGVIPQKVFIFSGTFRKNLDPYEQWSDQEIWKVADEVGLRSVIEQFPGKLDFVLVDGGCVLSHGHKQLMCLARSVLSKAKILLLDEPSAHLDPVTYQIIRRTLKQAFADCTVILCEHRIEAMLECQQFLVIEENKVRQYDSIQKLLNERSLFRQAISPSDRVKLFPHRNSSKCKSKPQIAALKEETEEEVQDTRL
metric: inhibition (%)

The cases that follow already have their inhibition on record.
- compound: "Cc1cccc(-c2c3c(=O)n(C)c(=O)n(C)c3c3n2-c2ccccc2NC3c2cccc([N+](=O)[O-])c2F)c1 (stereo not drawn)"
  metric: "inhibition"
  reading: 94
- compound: "Cc1cccc(-c2c3c(=O)n(C)c(=O)n(C)c3c3n2-c2ccccc2NC3c2ccccc2F)c1 (stereo not drawn)"
  metric: "inhibition"
  reading: 80
- compound: "Cc1ccc(C2Nc3ccccc3-n3c(-c4ccccc4C)c4c(=O)n(C)c(=O)n(C)c4c32)o1 (stereo not drawn)"
  metric: "inhibition"
  reading: 97

[A] COc1cc(O)ccc1C1Nc2ccccc2-n2c(-c3ccccc3)c3c(=O)n(C)c(=O)n(C)c3c21 (stereo not drawn)
[B] Cc1cccc(-c2c3c(=O)n(C)c(=O)n(C)c3c3n2-c2ccccc2NC3c2ccc(C)o2)c1 (stereo not drawn)
QUERY: Quick check, higher inhibition between A and B ? Select an item and report its label.
RESULT: B
(B: 98%, A: 56%)

* * *

test_target: Cystic fibrosis transmembrane conductance regulator (Homo sapiens, UniProt P13569)
procedure_text: Inhibition of human CFTR expressed in rat FRT cells coexpressing halide indicator YFP-H148Q assessed as inhibition of halide influx at 5 uM preincubated for 15 mins by FLIPR
Type: cell-based
metric: inhibition (%)

- compound: "Cc1ccccc1-c1c2c(=O)n(C)c(=O)n(C)c2c2n1-c1ccccc1NC2c1ccccc1 (centres undefined)"
  inhibition [%]: 51
- compound: "Cn1c(=O)c2c(-c3ccccc3)n3c(c2n(C)c1=O)C(c1ccccc1F)Nc1ccccc1-3 (centres undefined)"
  inhibition [%]: 61
- compound: "Cc1ccc(C2Nc3cc(C)c(C)cc3-n3c(-c4ccccc4)c4c(=O)n(C)c(=O)n(C)c4c32)o1 (centres undefined)"
  inhibition [%]: 84
- compound: "Cn1c(=O)c2c(-c3ccccc3F)n3c(c2n(C)c1=O)C(c1cccc(Cl)c1)Nc1ccccc1-3 (centres undefined)"
  inhibition [%]: 70
- compound: "Cc1cccc(-c2c3c(=O)n(C)c(=O)n(C)c3c3n2-c2ccccc2NC3c2ccc(O)cc2)c1 (centres undefined)"
  inhibition [%]: 71
- compound: "Cn1c(=O)c2c(-c3ccccc3)n3c(c2n(C)c1=O)C(c1cccc(F)c1F)Nc1ccccc1-3 (centres undefined)"
  inhibition [%]: 72

[I] COc1cccc(C2Nc3ccccc3-n3c(-c4ccccc4)c4c(=O)n(C)c(=O)n(C)c4c32)c1 (centres undefined)
[II] COc1cc(O)ccc1C1Nc2ccccc2-n2c(-c3ccccc3)c3c(=O)n(C)c(=O)n(C)c3c21 (centres undefined)
QUERY: Compare I and II and name the one whose reported inhibition is smaller. Select an item and report its label.
RESULT: II
(II: 5%, I: 63%)

[1] Cc1ccc(C2Nc3cc(C)c(C)cc3-n3c(-c4ccccc4F)c4c(=O)n(C)c(=O)n(C)c4c32)o1 (centres undefined)
[2] Cc1cccc(C2Nc3ccccc3-n3c(-c4ccccc4C)c4c(=O)n(C)c(=O)n(C)c4c32)c1 (centres undefined)
QUERY: Compare 1 and 2 and name the one whose reported inhibition is smaller. Select an item and report its label.
RESULT: 2
(2: 46%, 1: 80%)

* * *

test_target: Cystic fibrosis transmembrane conductance regulator (Homo sapiens)
procedure_text: Inhibition of human CFTR expressed in rat FRT cells coexpressing halide indicator YFP-H148Q assessed as inhibition of halide influx at 25 uM preincubated for 15 mins by FLIPR
Assay type: cell-based
metric: inhibition (%)

- compound: "COc1cccc(C2Nc3ccccc3-n3c(-c4ccccc4)c4c(=O)n(C)c(=O)n(C)c4c32)c1 (centres undefined)"
  inhibition / %: 86
- compound: "Cc1ccc(C2Nc3ccccc3-n3c(-c4ccccc4)c4c(=O)n(C)c(=O)n(C)c4c32)o1 (centres undefined)"
  inhibition / %: 97
- compound: "COc1cccc(C2Nc3ccccc3-n3c(-c4ccccc4C)c4c(=O)n(C)c(=O)n(C)c4c32)c1 (centres undefined)"
  inhibition / %: 94
- compound: "COc1cccc(C2Nc3ccccc3-n3c(-c4ccccc4F)c4c(=O)n(C)c(=O)n(C)c4c32)c1 (centres undefined)"
  inhibition / %: 97

* * *

test_target: Cystic fibrosis transmembrane conductance regulator (Homo sapiens, UniProt P13569)
procedure_text: Inhibition of CFTR in nonpermeabilized human bronchial epithelial cells assessed as inhibition of forskolin and IBMX-induced chloride current at by short-circuit current analysis
Format: cell-based, Epithelial cell
Sequence (P13569 whole entry): as the sequence (P13569 whole entry, looked up) above
pIC50: −log10 of the molar value.
metric: pIC50

QUERY: I have this compound here, Cc1ccc(C2Nc3ccccc3-n3c(-c4ccccc4)c4c(=O)n(C)c(=O)n(C)c4c32)o1 (stereo unspecified) , and I need its recorded pIC50.
RESULT: > 6.00

* * *

test_target: Cystic fibrosis transmembrane conductance regulator (Homo sapiens)
procedure_text: Inhibition of human CFTR expressed in rat FRT cells coexpressing halide indicator YFP-H148Q assessed as inhibition of halide influx at 25 uM preincubated for 15 mins by FLIPR
Assay type: cell-based
metric: inhibition (%)

- molecule: "Cn1c(=O)c2c(-c3ccccc3F)n3c(c2n(C)c1=O)C(c1cccc(Cl)c1)Nc1ccccc1-3 (stereo not drawn)"
  inhibition [%]: 98
- molecule: "Cc1ccc(C2Nc3cc(C)c(C)cc3-n3c(-c4ccccc4F)c4c(=O)n(C)c(=O)n(C)c4c32)o1 (stereo not drawn)"
  inhibition [%]: 87
- molecule: "Cc1cc2c(cc1C)-n1c(-c3ccccc3)c3c(=O)n(C)c(=O)n(C)c3c1C(c1ccc(O)cc1)N2 (stereo not drawn)"
  inhibition [%]: 99

* * *

test_target: Cystic fibrosis transmembrane conductance regulator (Homo sapiens)
procedure_text: Inhibition of human CFTR expressed in rat FRT cells coexpressing halide indicator YFP-H148Q assessed as inhibition of halide influx at 5 uM preincubated for 15 mins by FLIPR
Assay type: cell-based
metric: inhibition (%)

- molecule: "Cc1cccc(-c2c3c(=O)n(C)c(=O)n(C)c3c3n2-c2ccccc2NC3c2cccc([N+](=O)[O-])c2F)c1 (centres undefined)"
  inhibition / %: 61
- molecule: "Cc1ccc(C2Nc3ccccc3-n3c(-c4ccccc4)c4c(=O)n(C)c(=O)n(C)c4c32)o1 (centres undefined)"
  inhibition / %: 87
- molecule: "Cc1cccc(-c2c3c(=O)n(C)c(=O)n(C)c3c3n2-c2ccccc2NC3c2ccc(C)o2)c1 (centres undefined)"
  inhibition / %: 82
- molecule: "Cc1cc2c(cc1C)-n1c(-c3ccccc3)c3c(=O)n(C)c(=O)n(C)c3c1C(c1ccc(O)cc1)N2 (centres undefined)"
  inhibition / %: 80
- molecule: "COc1cccc(C2Nc3ccccc3-n3c(-c4ccccc4F)c4c(=O)n(C)c(=O)n(C)c4c32)c1 (centres undefined)"
  inhibition / %: 62
- molecule: "Cc1cccc(-c2c3c(=O)n(C)c(=O)n(C)c3c3n2-c2ccccc2NC3c2ccccc2F)c1 (centres undefined)"
  inhibition / %: 67
- molecule: "Cc1cccc(-c2c3c(=O)n(C)c(=O)n(C)c3c3n2-c2ccccc2NC3c2cccc(F)c2)c1 (centres undefined)"
  inhibition / %: 53
- molecule: "COc1cccc(C2Nc3ccccc3-n3c(-c4ccccc4C)c4c(=O)n(C)c(=O)n(C)c4c32)c1 (centres undefined)"
  inhibition / %: 62
- molecule: "Cn1c(=O)c2c(-c3ccccc3)n3c(c2n(C)c1=O)C(c1ccc(O)cc1)Nc1ccccc1-3 (centres undefined)"
  inhibition / %: 64
- molecule: "Cc1ccccc1-c1c2c(=O)n(C)c(=O)n(C)c2c2n1-c1ccccc1NC2c1cccc([N+](=O)[O-])c1 (centres undefined)"
  inhibition / %: 64
- molecule: "Cn1c(=O)c2c(-c3ccccc3)n3c(c2n(C)c1=O)C(c1cccc([N+](=O)[O-])c1)Nc1ccccc1-3 (centres undefined)"
  inhibition / %: 60
- molecule: "Cc1ccc(C2Nc3ccccc3-n3c(-c4ccccc4C)c4c(=O)n(C)c(=O)n(C)c4c32)o1 (centres undefined)"
  inhibition / %: 86
- molecule: "COc1cccc(C2Nc3ccccc3-n3c(-c4cccc(C)c4)c4c(=O)n(C)c(=O)n(C)c4c32)c1 (centres undefined)"
  inhibition / %: 73
- molecule: "Cn1c(=O)c2c(-c3ccccc3)n3c(c2n(C)c1=O)C(c1ccccc1)Nc1ccccc1-3 (centres undefined)"
  inhibition / %: 61
